Assay: Pharmacokinetic in BALB-c female mice, i.v. and oral
Assay type: in vivo
Details: mouse, plasma, iv, I.V, dose 1.00 mg/Kg, read-out: Vd (volume of distribution)
MEASUREMENT_KIND: Vd (L/kg)
Give the value in L/kg but do not write L/kg after it.

Record `COc1ncc2cc1NS(=O)(=O)c1cccc(c1)C(=O)N1CCc3ccc(cc3C1)-c1ccnc3ccc-2cc13` . Reported Vd: 0.59

====

Target: PI3K (p110α/p85α) (Homo sapiens)
Construct: purchased Carna Biosciences 07CBS-0402A
Test: PI3K activity assay (ADP Hunter Plus)
Assay type: biochemical
Conditions: read-out: PI3K alpha activity, IC50 (semi-quantitative class)
MEASUREMENT_KIND: IC50

- CHEMICAL_SMILES: "COc1ncc2cc1NS(=O)(=O)c1cccc(c1)C(=O)N1CCc3ccc(cc3C1)-c1ccnc3ccc-2cc13"
  REPORTED_RESULT: "< 100 nM"
- CHEMICAL_SMILES: "CC(C)Oc1ncc2cc1NS(=O)(=O)c1cccc(c1)C(=O)NCCn1cc(cn1)-c1ncnc3c1SC2=C3"
  REPORTED_RESULT: "> 1000 nM"
- CHEMICAL_SMILES: "COc1ncc2cc1NS(=O)(=O)c1cccc(c1)C(=O)NCc1cncc(c1)-c1cnc3sc-2nn13"
  REPORTED_RESULT: "< 100 nM"

Record `O=C1NCc2cncc(c2)-c2ncnc3c2SC(=C3)c2cnc(O)c(c2)NS(=O)(=O)c2cccc1c2` . Reported IC50: > 1000 nM

Record `COc1ncc2cc1NS(=O)(=O)c1cccc(c1)C(=O)NCCn1cc(cn1)-c1cnn3ccc-2nc13` . Reported IC50: < 100 nM

Record `COc1ncc2cc1NS(=O)(=O)c1cccc(c1)C(=O)NCc1cccc(c1)-c1ncnc3ccc-2cc13` . Reported IC50: < 100 nM

Record `COc1ncc2cc1NS(=O)(=O)c1cccc(c1)C(=O)NCc1cncc(c1)-c1ncnc3ccc-2cc13` . Reported IC50: < 100 nM

====

Assay: Pharmacokinetic in BALB-c female mice, i.v. and oral
Assay type: in vivo
Details: mouse, po, P.O, dose 10.00 mg/Kg, plasma
Please note: AUC(0-inf) exactly at 30000 ng·h/mL is 0.0. Only values below 30000 ng·h/mL get 1.0.

- COMPOUND: "COc1ncc2cc1NS(=O)(=O)c1cccc(c1)C(=O)NCc1cccc(c1)-c1ccnc3ccc-2cc13 [compound 3]"
  CLASS_ASSIGNMENT: 0.0
- COMPOUND: "COc1ncc2cc1NS(=O)(=O)c1cccc(c1)C(=O)NCCn1cc(cn1)-c1ncnc3ccc-2cc13 [compound 33]"
  CLASS_ASSIGNMENT: 1.0
- COMPOUND: "COc1ncc2cc1NS(=O)(=O)c1cccc(c1)C(=O)NCc1cccc(c1)-c1ncnc3ccc-2cc13 [compound 22]"
  CLASS_ASSIGNMENT: 0.0
- COMPOUND: "COc1ncc2cc1NS(=O)(=O)c1cccc(c1)C(=O)NCC1=CC=C(S1)c1ncnc3c1SC2=C3C [compound 68]"
  CLASS_ASSIGNMENT: 0.0
- COMPOUND: "COc1ncc2cc1NS(=O)(=O)c1cccc(c1)C(=O)NCc1cncc(c1)-c1ccnc3ccc-2nc13 [compound 31]"
  CLASS_ASSIGNMENT: 1.0

Please state whether AUC(0-inf) is below 30000 ng·h/mL for COc1ncc2cc1NS(=O)(=O)c1cc(c(F)cc1F)C(=O)NCc1cncc(c1)-c1ccnc3ccc-2cc13 [compound 10]
1.0

====

Biological target: PI3K (p110α/p85α) (Homo sapiens, UniProt P42336)
Construct: purchased Carna Biosciences 07CBS-0402A
Sequence (P42336 whole entry): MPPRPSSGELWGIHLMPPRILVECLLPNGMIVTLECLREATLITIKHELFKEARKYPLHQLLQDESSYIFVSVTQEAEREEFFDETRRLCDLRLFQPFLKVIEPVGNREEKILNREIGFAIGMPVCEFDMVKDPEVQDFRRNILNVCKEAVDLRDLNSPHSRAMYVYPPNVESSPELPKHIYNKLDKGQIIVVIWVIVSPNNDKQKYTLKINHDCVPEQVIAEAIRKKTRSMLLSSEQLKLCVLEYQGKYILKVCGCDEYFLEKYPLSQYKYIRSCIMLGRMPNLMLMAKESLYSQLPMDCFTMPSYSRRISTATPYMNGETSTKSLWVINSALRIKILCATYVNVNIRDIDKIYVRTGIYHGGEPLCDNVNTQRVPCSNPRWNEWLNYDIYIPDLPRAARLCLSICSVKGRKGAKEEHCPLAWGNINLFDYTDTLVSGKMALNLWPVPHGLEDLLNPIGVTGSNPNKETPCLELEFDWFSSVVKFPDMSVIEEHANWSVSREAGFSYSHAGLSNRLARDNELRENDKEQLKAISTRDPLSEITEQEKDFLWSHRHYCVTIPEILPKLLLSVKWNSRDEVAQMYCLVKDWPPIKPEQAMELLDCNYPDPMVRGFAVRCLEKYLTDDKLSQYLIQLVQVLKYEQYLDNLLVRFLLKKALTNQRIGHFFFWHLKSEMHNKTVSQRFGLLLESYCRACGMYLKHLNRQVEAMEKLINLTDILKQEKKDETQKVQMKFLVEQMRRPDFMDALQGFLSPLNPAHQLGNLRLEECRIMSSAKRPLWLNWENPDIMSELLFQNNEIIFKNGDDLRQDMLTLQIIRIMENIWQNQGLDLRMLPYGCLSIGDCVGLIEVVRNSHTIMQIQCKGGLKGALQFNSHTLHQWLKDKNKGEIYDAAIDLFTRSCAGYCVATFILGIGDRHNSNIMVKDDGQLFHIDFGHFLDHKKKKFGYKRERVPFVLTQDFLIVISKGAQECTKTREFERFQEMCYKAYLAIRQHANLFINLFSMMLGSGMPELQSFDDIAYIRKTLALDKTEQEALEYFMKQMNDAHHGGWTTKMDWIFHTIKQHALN
Sequence (P27986 whole entry partner): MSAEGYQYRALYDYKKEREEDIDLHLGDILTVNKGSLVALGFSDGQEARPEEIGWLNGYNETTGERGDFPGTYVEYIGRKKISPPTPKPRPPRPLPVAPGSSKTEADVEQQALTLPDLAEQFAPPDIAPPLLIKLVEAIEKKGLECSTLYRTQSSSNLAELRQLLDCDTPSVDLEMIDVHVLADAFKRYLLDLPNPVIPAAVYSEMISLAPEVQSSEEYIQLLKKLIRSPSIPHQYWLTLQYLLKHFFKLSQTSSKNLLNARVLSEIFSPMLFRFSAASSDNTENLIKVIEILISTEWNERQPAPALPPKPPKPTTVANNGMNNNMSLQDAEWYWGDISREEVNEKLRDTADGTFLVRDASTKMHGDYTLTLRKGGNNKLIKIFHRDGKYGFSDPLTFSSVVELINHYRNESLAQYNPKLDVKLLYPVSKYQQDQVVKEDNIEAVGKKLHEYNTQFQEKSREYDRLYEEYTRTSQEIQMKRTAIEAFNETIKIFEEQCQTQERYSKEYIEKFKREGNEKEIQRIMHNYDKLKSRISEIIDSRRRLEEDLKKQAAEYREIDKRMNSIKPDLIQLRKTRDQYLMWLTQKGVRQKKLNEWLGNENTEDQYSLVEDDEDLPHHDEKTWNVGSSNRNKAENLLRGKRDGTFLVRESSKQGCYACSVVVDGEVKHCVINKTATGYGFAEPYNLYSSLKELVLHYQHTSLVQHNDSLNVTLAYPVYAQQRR
Assay: PI3K activity assay (ADP Hunter Plus)
Type: biochemical
Details: read-out: PI3K alpha activity, IC50 (semi-quantitative class)
pIC50: −log10 of the molar value.
In this section we review reported pIC50 values for a set of compounds.

Solved entries:
- COMPOUND: "COc1ncc2cc1NS(=O)(=O)c1cccc(c1)C(=O)NCc1ccc(F)c(c1)-c1ccnc3ccc-2cc13 [compound 4]"
  REPORTED_RESULT: "> 7.00"
- COMPOUND: "COc1ncc2cc1NS(=O)(=O)c1cccc(c1)C(=O)NCc1cncc(c1)-c1ccnc3c1SC2=C3 [compound 62]"
  REPORTED_RESULT: "6.00 to 7.00"
- COMPOUND: "COc1ncc2cc1NS(=O)(=O)c1cccc(c1)C(=O)NCc1cncc(c1)-c1ccnc3ccc-2nc13 [compound 31]"
  REPORTED_RESULT: "> 7.00"

Record COc1ncc2cc1NS(=O)(=O)c1cccc(c1)C(=O)NCc1cncc(c1)-c1cnc3ccc-2cn13 [compound 30] . Reported pIC50: > 7.00

Record COc1ncc2cc1NS(=O)(=O)c1cccc(c1)C(=O)NCc1cc(cs1)-c1ncnc3c1SC2=C3 [compound 74] . Reported pIC50: < 6.00

Record O=C1NCc2cncc(c2)-c2cnc3sc(nn23)-c2cnc(O)c(c2)NS(=O)(=O)c2cccc1c2 [compound 9] . Reported pIC50: 6.00 to 7.00

Record O=C1NCc2cc(ccn2)-c2ncnc3c2SC(=C3)c2cncc(c2)NS(=O)(=O)c2cccc1c2 [compound 43] . Reported pIC50: > 7.00

====

Assay: Pharmacokinetic in BALB-c female mice, i.v. and oral
Assay type: in vivo
Details: mouse, iv, I.V, dose 5.00 mg/Kg, plasma, read-out: T½ last (plasmatic half life) (converted)
Please note: half-life exactly at 2 h is 0.0. Only values below 2 h get 1.0.

A selection of reference data follows.
- CHEMICAL_SMILES: "COc1ncc2cc1NS(=O)(=O)c1cccc(c1)C(=O)NCc1cncc(c1)-c1ccnc3ccc-2nc13"
  CLASS_ASSIGNMENT: 1.0
- CHEMICAL_SMILES: "COc1ncc2cc1NS(=O)(=O)c1cccc(c1)C(=O)NCc1cccc(c1)-c1ccnc3ccc-2cc13"
  CLASS_ASSIGNMENT: 1.0
- CHEMICAL_SMILES: "COc1ncc2cc1NS(=O)(=O)c1cccc(c1)C(=O)NCc1cccc(c1)-c1ncnc3ccc-2cc13"
  CLASS_ASSIGNMENT: 0.0

Please state whether half-life is below 2 h for `COc1ncc2cc1NS(=O)(=O)c1cccc(c1)C(=O)NCCn1cc(cn1)-c1ncnc3ccc-2cc13`
0.0

Please state whether half-life is below 2 h for `COc1ncc2cc1NS(=O)(=O)c1cccc(c1)C(=O)NCC1=CC=C(S1)c1ncnc3c1SC2=C3C`
0.0

Please state whether half-life is below 2 h for `COc1ncc2cc1NS(=O)(=O)c1cccc(c1)C(=O)NCc1cccc(c1)-c1cnn3ccc-2nc13`
0.0

====

Assay: Pharmacokinetic in BALB-c female mice, i.v. and oral
Assay type: in vivo
Conditions: mouse, plasma, iv, I.V, dose 5.00 mg/Kg, read-out: Vd (volume of distribution)
Label true for high-side Vd (at or above 0.5 L/kg) and false for low-side Vd (below it).

A selection of reference data follows.
- CHEMICAL_SMILES: "COc1ncc2cc1NS(=O)(=O)c1cc(c(F)cc1F)C(=O)NCc1cncc(c1)-c1ccnc3ccc-2cc13"
  CLASS_ASSIGNMENT: "false"
- CHEMICAL_SMILES: "COc1ncc2cc1NS(=O)(=O)c1cccc(c1)C(=O)NCc1cccc(c1)-c1cnn3ccc-2nc13"
  CLASS_ASSIGNMENT: "true"

Would you say `COc1ncc2cc1NS(=O)(=O)c1cccc(c1)C(=O)NCc1cccc(c1)-c1ccnc3ccc-2cc13` shows Vd at minimum 0.5 L/kg?
false

Would you say `COc1ncc2cc1NS(=O)(=O)c1cccc(c1)C(=O)NCc1cncc(c1)-c1ccnc3ccc-2nc13` shows Vd at minimum 0.5 L/kg?
true

Would you say `COc1ncc2cc1NS(=O)(=O)c1cccc(c1)C(=O)NCc1cccc(c1)-c1ncnc3ccc-2cc13` shows Vd at minimum 0.5 L/kg?
false

Would you say `COc1ncc2cc1NS(=O)(=O)c1cccc(c1)C(=O)NCCn1cc(cn1)-c1ncnc3ccc-2cc13` shows Vd at minimum 0.5 L/kg?
true

====

Molecular target: mTOR (Homo sapiens, UniProt P42345)
Construct: purchased Invitrogen PV4754
Sequence (P42345 1360-2549 limits assumed): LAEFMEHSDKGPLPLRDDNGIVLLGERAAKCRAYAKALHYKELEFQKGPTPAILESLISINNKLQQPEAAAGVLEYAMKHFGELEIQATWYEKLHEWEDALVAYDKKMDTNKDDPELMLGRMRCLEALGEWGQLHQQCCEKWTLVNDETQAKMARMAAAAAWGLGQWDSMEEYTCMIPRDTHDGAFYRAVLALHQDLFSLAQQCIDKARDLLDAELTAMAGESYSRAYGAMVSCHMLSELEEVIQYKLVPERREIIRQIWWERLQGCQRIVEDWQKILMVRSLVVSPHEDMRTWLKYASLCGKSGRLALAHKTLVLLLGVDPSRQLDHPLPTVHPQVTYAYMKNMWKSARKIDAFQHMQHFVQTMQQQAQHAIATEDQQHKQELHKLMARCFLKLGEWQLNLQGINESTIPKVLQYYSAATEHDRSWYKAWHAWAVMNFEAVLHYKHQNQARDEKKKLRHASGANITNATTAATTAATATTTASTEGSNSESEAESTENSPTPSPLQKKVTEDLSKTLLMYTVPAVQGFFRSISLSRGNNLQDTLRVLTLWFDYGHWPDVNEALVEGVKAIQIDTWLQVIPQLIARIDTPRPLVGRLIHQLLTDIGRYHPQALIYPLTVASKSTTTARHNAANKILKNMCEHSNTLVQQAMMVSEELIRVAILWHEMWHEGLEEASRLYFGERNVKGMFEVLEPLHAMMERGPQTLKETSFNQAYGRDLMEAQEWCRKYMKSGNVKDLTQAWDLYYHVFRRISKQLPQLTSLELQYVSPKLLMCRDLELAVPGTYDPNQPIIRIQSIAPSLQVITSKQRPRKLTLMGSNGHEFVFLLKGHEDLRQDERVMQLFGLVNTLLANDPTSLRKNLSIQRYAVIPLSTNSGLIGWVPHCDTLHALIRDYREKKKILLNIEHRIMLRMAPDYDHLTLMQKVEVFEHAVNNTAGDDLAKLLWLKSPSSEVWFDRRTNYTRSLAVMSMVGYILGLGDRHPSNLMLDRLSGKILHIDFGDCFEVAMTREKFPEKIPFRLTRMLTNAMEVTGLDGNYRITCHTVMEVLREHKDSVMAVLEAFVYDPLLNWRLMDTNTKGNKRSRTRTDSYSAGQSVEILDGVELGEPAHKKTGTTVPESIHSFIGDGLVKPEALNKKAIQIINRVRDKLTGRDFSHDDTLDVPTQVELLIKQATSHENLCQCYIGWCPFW
Assay: mTOR assay (LanthaScreen kinase activity assay)
Type: biochemical
Details: read-out: mTOR actual IC50 (in parentheses)
Description: The enzymatic mTOR activity was measured using a LanthaScreen™ kinase activity assay (Invitrogen). […] The concentration of the assay components were the following: 0.24 nM mTOR kinase, 400 nM 4EBP1-GFP, […] and serial dilutions of the compound (inhibitor) to be evaluated. […] The TR-FRET value (a dimensionless number) was calculated as the ratio of the acceptor signal (GFP, emission at 520 nm) to the donor signal (terbium, emission at 495 nm). […]
In this section we review reported pIC50 values for a set of compounds.
// pIC50: -log10(molar conc.)

Record `COc1ncc2cc1NS(=O)(=O)c1cccc(c1)C(=O)NCc1cncc(c1)-c1ccnc3ccc-2cc13` . Reported pIC50: 7.19

Record `COc1ncc2cc1NS(=O)(=O)c1cccc(c1)C(=O)NCc1cncc(c1)-c1cnn3ccc-2nc13` . Reported pIC50: 8.40

Record `COc1ncc2cc1NS(=O)(=O)c1cccc(c1)C(=O)NCC1CCN(CC1)c1ncnc3ccc-2cc13` . Reported pIC50: 8.30

Record `COc1ncc2cc1NS(=O)(=O)c1cccc(c1)C(=O)N1CCc3ccc(cc3C1)-c1ccnc3ccc-2cc13` . Reported pIC50: 9.52

All figures here come from patent US9808466B2.
